Parameter pIC50, tested on TcFPPS (Trypanosoma cruzi), listed per item.
Sequence (Q95WL3 1-362): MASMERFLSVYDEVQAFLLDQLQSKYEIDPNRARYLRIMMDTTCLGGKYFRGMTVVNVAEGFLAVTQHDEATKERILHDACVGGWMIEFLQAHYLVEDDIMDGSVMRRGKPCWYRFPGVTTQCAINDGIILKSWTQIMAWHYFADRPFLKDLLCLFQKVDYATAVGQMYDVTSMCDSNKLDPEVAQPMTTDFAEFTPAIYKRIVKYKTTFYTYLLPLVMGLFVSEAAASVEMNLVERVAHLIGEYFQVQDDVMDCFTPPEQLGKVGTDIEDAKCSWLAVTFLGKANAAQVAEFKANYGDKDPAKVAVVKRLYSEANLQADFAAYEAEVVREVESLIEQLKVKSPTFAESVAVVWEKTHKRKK
On this scale, pIC50 is minus log10 of a concentration expressed in M (mol/L).

Field: example entries. Status: answers known.
Enquiry: # input compound: CCCCCCCC[n+]1ccn(CC(O)(P(=O)([O-])O)P(=O)(O)O)c1 (stereo not shown) [BPH-1222] ; wanted: its pIC50
Return: 6.82

Enquiry: // query: CCCCC[n+]1ccn(CC(P(=O)([O-])O)P(=O)(O)O)c1 (stereo not shown) [BPH-1339]
Return: 6.46

// below: pIC50 requested for another compound
Enquiry: Entry CCCCCCCCCCC[n+]1ccn(CC(O)(P(=O)([O-])O)P(=O)(O)O)c1 (stereo not shown) [BPH-1236] : reported pIC50 = ?
Return: 6.26
